Sourced from paper PMC5540273

Tested on: CDK3;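 also: KINOMEscan kinase panel screen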
Details: concentration: 1 μM, replicates: in singlicate; n = 1
Quick list: %Inh per entry.
State the answer as a number, implicitly in %.

Molecule: CSc1cccc2c(-c3ccncn3)c(-c3ccc(F)cc3)nn12 [GW514786]
%Inh (%): 9
//
Molecule: O=C(Nc1n[nH]c2nc(-c3ccc(O)cc3)ccc12)C1CC1 [SB-710363]
%Inh (%): 84
//
Molecule: c1ccc(Oc2ccc(Nc3ccnc4cc(-c5ccc(CNCCN6CCOCC6)o5)ccc34)cc2)nc1 [GW567145]
%Inh (%): 0
//
Molecule: CCn1c(-c2nonc2N)nc2c(C#CC(C)(C)O)nc(OC[C@H](N)c3ccccc3)cc21 [GSK943949]
%Inh (%): 0
//
Molecule: Cl.Cl.NCC(NC(=O)c1cc(-c2ccccc2)c(-c2ccnc3[nH]ccc23)s1)c1ccccc1 (stereo not drawn) [GSK1321561]
%Inh (%): 8

Prompt: Fill in: %Inh of Cc1cccc(Nc2nc(N[C@H]3CCNC3)ncc2C(N)=O)c1.Cl [GSK2197149] is ___
Response: 0

Prompt: What do we get for Cc1ccc(S(=O)(=O)Nc2ccc(Nc3nccc(Nc4cccc5[nH]ncc45)n3)cc2)cc1 [GSK581271] ?
Response: 17

Prompt: What do we get for O=C(O)C(F)(F)F.O=C(O)C(F)(F)F.O=c1[nH]ccc2nc(N[C@@H]3CCCNC3)nc(Nc3ccc(S(=O)(=O)N4CCOCC4)cc3)c12 [GSK2177277] ?
Response: 88

Prompt: What do we get for COc1cccc(C2=C(Nc3ccc(Cl)c(C(=O)O)c3)C(=O)NC2=O)c1 [SB-390769] ?
Response: 25
